This collection of values is drawn from the RNAGym collection of RNA variant scans (doi:10.1093/nar/gkz1192).

B1: CPEB3 Ribozyme (parent)
chain: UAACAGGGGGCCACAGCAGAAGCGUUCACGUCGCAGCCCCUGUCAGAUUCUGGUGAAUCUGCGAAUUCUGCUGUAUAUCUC

variants of: B1; test: self-cleavage, relative activity (ratio to wild type); higher = more cleavage; in vitro, sequencing
MEASURE: self-cleavage
Reply: number alone, nothing else.

Consider the following illustrative entries.
MUTATION_STRING	self-cleavage
A5U G36A	0.39
C40A U72G	0.41

**Query** # self-cleavage lookup, item A2G A20U
**Result** 0.39
